Test system: 945468-187-T-J3-PDC spheroids with HUVEC/MSC, viability
test-method-notes: Anticancer human tumor 945468-187-T-J3-PDC patient-derived rectal carcinoma cell line growth inhibition [PI3K]
test-settings: second compound 3.16 µM; first compound 3.16 µM; hits give low values
Measured viability, T/C accompanies every entry in the list below.
Numbers only; they are read as %.

Solved cases below.
CC1(C)CCC(CN2CCN(c3ccc(C(=O)NS(=O)(=O)c4ccc(NCC5CCOCC5)c([N+](=O)[O-])c4)c(Oc4cnc5[nH]ccc5c4)c3)CC2)=C(c2ccc(Cl)cc2)C1 + Cc1nc(NC(=O)N2CCCC2C(N)=O)sc1-c1ccnc(C(C)(C)C(F)(F)F)c1; 104
CNC(=O)c1ccc(N2C(=S)N(c3ccc(C#N)c(C(F)(F)F)c3)C(=O)C2(C)C)cc1F + CC(Nc1ncnc2nc[nH]c12)c1cc2cccc(Cl)c2c(=O)n1-c1ccccc1; 92.9

Here's the next entry for you.
IN: Write down the reported viability, T/C of CCCS(=O)(=O)Nc1ccc(F)c(C(=O)c2c[nH]c3ncc(-c4ccc(Cl)cc4)cc23)c1F + Cc1nc(NC(=O)N2CCCC2C(N)=O)sc1-c1ccnc(C(C)(C)C(F)(F)F)c1 , test system: 945468-187-T-J3-PDC spheroids with HUVEC/MSC, viability.
OUT: 96.3

----------
Measured viability, T/C accompanies every entry in the list below.
Test system: 945468-187-T-J3-PDC spheroids with HUVEC/MSC, viability
test-method-notes: Anticancer human tumor 945468-187-T-J3-PDC cell line growth inhibition [PI3K];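 note: spheroids exposed to agents for 7 days before viability read; 100% = DMSO vehicle control viability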
test-settings: second compound 0.01 µM; first compound 1 µM; hits give low values
Numbers only; they are read as %.

CC(Cn1ccc(-c2ccc(C#N)c(Cl)c2)n1)NC(=O)c1cc(C(C)O)[nH]n1 (centres undefined) + CC(Nc1ccc2c(c1)OCCn1cc(N3C(=O)OCC3C(F)F)nc1-2)C(N)=O; 111
CCN1CCN(Cc2ccc(Nc3ncc(F)c(-c4cc(F)c5nc(C)n(C(C)C)c5c4)n3)nc2)CC1 + CC(Nc1ccc2c(c1)OCCn1cc(N3C(=O)OCC3C(F)F)nc1-2)C(N)=O; 70.1
Cn1nccc1Nc1nccc(-c2ccn(C(CO)c3ccc(Cl)c(F)c3)c(=O)c2)n1 (centres undefined) + CC(Nc1ccc2c(c1)OCCn1cc(N3C(=O)OCC3C(F)F)nc1-2)C(N)=O; 115

Here's the next entry for you.
IN: Write down the reported viability, T/C of CCN1CCN(Cc2ccc(Nc3ncc(F)c(-c4cc(F)c5nc(C)n(C(C)C)c5c4)n3)nc2)CC1 + COc1c(OCCCN2CCOCC2)ccc2c3n(c(=NC(=O)c4cnc(N)nc4)nc12)CCN3 , test system: 945468-187-T-J3-PDC spheroids with HUVEC/MSC, viability.
OUT: 33.8

----------
Tested on: 945468-187-T-J3-PDC spheroids with HUVEC/MSC, viability
test-method-notes: Anticancer human tumor 945468-187-T-J3-PDC cell line growth inhibition [PI3K];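 note: spheroids exposed to agents for 7 days before viability read; 100% = DMSO vehicle control viability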
test-settings: second compound 0.0316 µM; first compound 10 µM; hits give low values
Measured viability, T/C accompanies every entry in the list below.
Numbers only; they are read as %.

CC1(C)CCC(Nc2ncc(C(F)(F)F)c(-c3c[nH]c4c(P(C)(C)=O)c(C#N)ccc34)n2)CN1 (stereo not drawn) + CC(Nc1ncnc2nc[nH]c12)c1cc2cccc(Cl)c2c(=O)n1-c1ccccc1; 12.9
C[C@@H](NC(=O)c1ncnc(N)c1Cl)c1ncc(C(=O)Nc2cc(C(F)(F)F)c(Cl)cn2)s1 + COc1c(OCCCN2CCOCC2)ccc2c3n(c(=NC(=O)c4cnc(N)nc4)nc12)CCN3; 102

IN: # get_value(readout='viability, T/C', item= CCCS(=O)(=O)Nc1ccc(F)c(C(=O)c2c[nH]c3ncc(-c4ccc(Cl)cc4)cc23)c1F + Cc1nc(NC(=O)N2CCCC2C(N)=O)sc1-c1ccnc(C(C)(C)C(F)(F)F)c1 )
OUT: 17.1
